# credit: PubChem BioAssay (NCI)

Test system: 786-0 renal
assay_remarks: NCI-60 one-dose screen, 48 h
run_conditions: 10 µM unless noted
Protocol: Cells are grown in 96 well plates and exposed to the test compound for 48 hours. Compounds are tested at a single concentration, which is 10^-5 M for most compounds. The reported endpoint is percent growth (GI% or GIPRCNT), where numbers from 0 - 100% represent growth inhibition, and numbers from -100% - 0 represent cell death. For example, a value of 40 represents 60% growth inhibition. A value of 0 means no net growth occurred over the course of the experiment. […]
Compounds without any hit were thinned out: in the full panel of roughly 83,000, 20% have a hit. Active and inactive are the calls of the source. The calls were made as follows: active = growth percent below 10; inactive = the rest.
# output must be one of active, inactive

A selection of reference data follows.
• CCCCC[C@@H]1C/C=C(\C)[C@@H](O)C(C)(C)C(=O)[C@@H](C)/C=C(\C)[C@@H]2C[C@H](O)C[C@](O)(CC(=O)O1)O2 = inactive
• COc1ccc(/C=C/c2nc3ccccc3c(=O)n2CC(=O)Nc2ccccc2)cc1 = active
• COc1ccc(C(=O)c2cc(C(C)=O)c3c(C)cc(C)cn23)cc1 = inactive
• Fc1ccc(F)c(CNc2nc(SCCN3CCOCC3)nc3c2cnn3CC(Cl)c2ccc(Br)cc2)c1 (centres undefined) = inactive
• Cc1ccc(-c2cc(-c3ccccc3)[nH]c(=O)c2C#N)cc1 = inactive
• COc1ccc(Nc2ncnc3sc4c(c23)CCN(Cc2ccccc2)C4)cc1 = inactive

input: Recorded call for COc1ccc2[nH]c(O)c(N=NC(=O)c3ccc4nc(-c5ccc(Cl)cc5)[nH]c4c3)c2c1 ?
output: inactive

input: Test call, this compound: O=CNc1ccc(-n2cnc3cc(-c4ccc(O)cc4)ccc32)cc1
output: inactive

input: Record lookup: outcome of this test for O=C(NN1C(=O)/C(=C/C=C/c2ccc([N+](=O)[O-])o2)SC1=S)c1ccncc1 ?
output: active
